assay: viability of uninfected HEp-2 cells – cell-based, HTS, cytotoxicity control for RSV inhibitor project, dose response (AID 2410); assay type: functional; conditions: human respiratory syncytial virus
The source made the active and inactive calls.
Answer each item with its documented CC50.

Previously resolved entries follow.
> print(dat)
                                  cpdsmiles     reportedvalue
1  CCc1noc(C)c1C(=O)Oc1ccc(N(C)S(=O)(=O)c2ccccc2)cc1  26.2 µM (active)
2  O=S(=O)(c1ccc2c(c1)OCCO2)N1CCC(c2nc(O)c3nnn(Cc4cccc(F)c4)c3n2)CC1  31.9 µM (active)
3        CCOC(=O)Cc1c(C)c2c(O)cc(O)cc2oc1=O  47.7 µM (active)
4  CCn1cc(C(=O)O)c(=O)c2cc(F)c(N3CCN(C(=O)Nc4ccccc4)CC3)cc21  > 50 µM (active)

So what does the record say about CC50 for Cc1ccc(S(=O)(=O)N(C)C)cc1NC(=O)COC(=O)/C(=C/c1ccc(F)cc1)c1cccs1 ?
29.7 µM (active)

###

test: Luminescence Cell-Based Dose Confirmation HTS to Identify Activators of 5'UTR Stem-Loop Driven Alpha-Synuclein mRNA Translation in H4 Neuroglioblastoma Cells. [Related pubchem assays: 1829 (Project Summary), 1814 (Primary HTS)]; type: functional
Activity calls are given as the source filed them.
outcomeMeasure: EC50

Worked cases, EC50 given:
> print(dat)
                                   molecule          reportedvalue
1  Cc1ccc(C2NC(=O)c3c(sc(C)c3C)N2)c(O)c1 (centres undefined)       3.83 µM (active)
2  O=C(N/N=C/c1c[nH]c2ccccc12)c1cc(-c2ccc(-c3ccccc3)cc2)[nH]n1      0.219 µM (active)
3         CC(C)c1ccc(CNc2ccc3c(c2)ncn3C)cc1      0.217 µM (active)
4          Nc1cc(-c2ccc(Br)cc2)nn1Cc1ccccc1       7.99 µM (active)
5       CC(C)c1ccc(NC(=O)N2CCc3ccccc3C2)cc1       12.1 µM (active)
6  COc1ccc2cc(C(=O)NCC3CCCO3)[nH]c2c1 (centres undefined)       7.02 µM (active)
7  Cc1cccc(C(=N)NOC(=O)N2c3ccccc3Sc3ccccc32)c1  > 120 µM (not active)
8          N=C(NOC(=O)C1CCCCC1)c1ccc(Br)cc1       27.6 µM (active)

# next molecule below
Any idea what EC50 was measured for Cc1ccc(-c2nn(-c3ccccc3)cc2C(=O)Nc2ccc(C)c(S(=O)(=O)N3CCOCC3)c2)cc1 ?
> 120 µM (not active)

###

Would you kindly list IC50 for each of these molecules?
molecular target: Polyadenylate-binding protein 1 (Homo sapiens, UniProt P11940); test: MLLE domain peptide-binding blockers, IC50 – biochemical, fluorescence polarization, FITC-PAM2 peptide, dose response (AID 602259); type: functional; settings: read-out: IC50_Mean
Sequence (P11940 whole entry, the tested form may be a part): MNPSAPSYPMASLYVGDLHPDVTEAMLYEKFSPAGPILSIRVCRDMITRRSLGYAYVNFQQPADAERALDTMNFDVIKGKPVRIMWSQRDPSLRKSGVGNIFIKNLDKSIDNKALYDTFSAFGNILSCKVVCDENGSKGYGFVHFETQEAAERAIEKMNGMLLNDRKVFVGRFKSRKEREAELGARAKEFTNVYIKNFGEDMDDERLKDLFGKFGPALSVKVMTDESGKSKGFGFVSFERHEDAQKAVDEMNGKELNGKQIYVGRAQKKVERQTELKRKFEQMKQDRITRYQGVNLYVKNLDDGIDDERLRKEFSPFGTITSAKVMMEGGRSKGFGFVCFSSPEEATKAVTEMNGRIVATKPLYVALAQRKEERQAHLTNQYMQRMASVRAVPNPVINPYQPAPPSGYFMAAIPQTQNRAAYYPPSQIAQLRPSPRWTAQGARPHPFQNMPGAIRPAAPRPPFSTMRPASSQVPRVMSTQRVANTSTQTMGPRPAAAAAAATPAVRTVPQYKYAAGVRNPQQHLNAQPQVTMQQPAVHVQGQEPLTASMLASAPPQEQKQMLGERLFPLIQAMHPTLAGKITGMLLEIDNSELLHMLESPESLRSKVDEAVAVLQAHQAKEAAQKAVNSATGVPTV
The source made the active and inactive calls.

> print(dat)
                                  cpdsmiles                              targetentity       reportedvalue
1  Cc1ccc(CNC(=O)CSc2nccn(-c3ccc(C)c(F)c3)c2=O)cc1  Polyadenylate-binding protein 1 (Homo sapiens, UniProt P11940)  > 66 µM (inactive)
2  COC(=O)/C=C1\SC(NC(=O)c2ccc(C)cc2)=NC1=O  Polyadenylate-binding protein 1 (Homo sapiens, UniProt P11940)  > 66 µM (inactive)
3     O=Cc1ccc(OC(=O)c2cc(Cl)nc3ccccc23)cc1  Polyadenylate-binding protein 1 (Homo sapiens, UniProt P11940)  > 66 µM (inactive)

Count: 7. Required value per item: IC50.
1. COc1ccc(Cl)cc1NC(=O)CN(C(=O)c1ccco1)C1CCCCC1
2. O=[N+]([O-])c1c(NCCCO)cc(SCc2ccco2)c2nonc12
3. CCN1C(=O)/C(=C2\Sc3ccccc3N2CC)OC1=S
4. CCNC(=O)c1sc(=S)n(-c2ccc(C)cc2)c1N
5. Cc1c(NC(=S)NC(=O)c2cc3ccccc3o2)cccc1C(=O)O
6. C=CCn1c(O)c(N=NC(S)=Nc2ccccc2F)c2ccccc21
7. CCOc1ccc2c(c1)n([O-])c1c([n+]2=O)CCCC1

["> 66 µM (inactive)", "> 66 µM (inactive)", "> 66 µM (inactive)", "> 66 µM (inactive)", "> 66 µM (inactive)", "> 66 µM (inactive)", "> 66 µM (inactive)"]

Dear colleague, I am looking for the recorded IC50 of the following molecule: Cn1nnc(NC(=S)NC(=O)c2ccc3ccccc3c2)n1
> 66 µM (inactive)

Data origin: ChEMBL document CHEMBL1201862
